# ASSAY EXPLANATION: Apparent permeability across apical to basolateral side in human Caco2 cells at 10 uM after 60 mins by LC/MS/MS analysis
# Type: ADME, cell-based
# CONDITION INFO: Caco-2
MEASURED PROPERTY: Papp A→B at 1 h, 10 µM (×10⁻⁶ cm/s)

I: CC(C)N1CCN(C(=O)c2ccc(CN3CCCCC3)cc2)CC1
II: Cl.O=C(c1ccc(CN2CCOCC2)cc1)N1CCN(C2CC2)CC1
III: CC(C)N1CCN(C(=O)c2ccc(CN3CCOCC3)cc2)CC1.O=C(O)/C=C\C(=O)O
IV: O=C(c1ccc(CN2CCOCC2)cc1)N1CCN(C2CCC2)CC1
With regard to Papp A→B at 1 h, 10 µM, arrange the entries in ascending order, please. Returns: the labels arranged in the requested order.
I, III, IV, II
(I: 12.4 ×10⁻⁶ cm/s, III: 22.4 ×10⁻⁶ cm/s, IV: 71.2 ×10⁻⁶ cm/s, II: 108 ×10⁻⁶ cm/s)

----------
# ASSAY EXPLANATION: Volume of distribution at steady state in Sprague-Dawley rat
# Format: ADME, organism-based
# CONDITION INFO: in vivo, read-out: Vdss
MEASURED PROPERTY: Vd (L/kg)

Sample answers from the record:
>>> recorded_result("CC(C)N1CCN(C(=O)c2ccc(CN3CCC(F)CC3)cc2)CC1")
29.2
>>> recorded_result("CC(C)N1CCN(C(=O)c2ccc(CN3CCOCC3)cc2)CC1.O=C(O)/C=C\\C(=O)O")
3.6

P: O=C(c1ccc(CN2CCOCC2)cc1)N1CCN(C2CCC2)CC1
Q: CC(C)N1CCN(C(=O)c2ccc(CN3CCCCC3)cc2)CC1
Quick check, higher Vd between P and Q ? State the label of the item chosen.
Q
(Q: 39.4 L/kg, P: 6.4 L/kg)

A: Cl.O=C(c1ccc(CN2CCOCC2)cc1)N1CCN(C2CC2)CC1
B: O=C(c1ccc(CN2CCC(F)CC2)cc1)N1CCN(C2CC2)CC1
C: O=C(c1ccc(CN2CCC(F)CC2)cc1)N1CCN(C2CCC2)CC1
Highest Vd first, then in falling order down to the smallest. Returns: the labels arranged in the requested order.
C, B, A

----------
# ASSAY EXPLANATION: Toxicity in po dosed rat administered up to 28 days
# Assay type: organism-based
# CONDITION INFO: in vivo
MEASURED PROPERTY: NOAEL at 672 h (mg/kg/day)
Give just the numeric value; mg/kg/day need not be written.

Name the recorded NOAEL at 672 h for CC(C)N1CCN(C(=O)c2ccc(CN3CCOCC3)cc2)CC1.O=C(O)/C=C\C(=O)O .
25

----------
# ASSAY EXPLANATION: Half life in Sprague-Dawley rat at 1 mg/kg, iv
# Format: ADME, organism-based
# CONDITION INFO: in vivo
MEASURED PROPERTY: half-life (h)

>>> recorded_result("O=C(c1ccc(CN2CCC(F)CC2)cc1)N1CCN(C2CC2)CC1")
1.1
>>> recorded_result("O=C(c1ccc(CN2CCC(F)CC2)cc1)N1CCN(C2CCC2)CC1")
2.1
>>> recorded_result("Cl.O=C(c1ccc(CN2CCOCC2)cc1)N1CCN(C2CC2)CC1")
0.9

P: CC(C)N1CCN(C(=O)c2ccc(CN3CCC(F)CC3)cc2)CC1
Q: CC(C)N1CCN(C(=O)c2ccc(CN3CCOCC3)cc2)CC1.O=C(O)/C=C\C(=O)O
Input pair: P , Q . Output: entry with lower half-life. State the label of the item chosen.
Q
(Q: 3.2 h, P: 7.6 h)

a: O=C(c1ccc(CN2CCOCC2)cc1)N1CCN(C2CCC2)CC1
b: CC(C)N1CCN(C(=O)c2ccc(CN3CCCCC3)cc2)CC1
Input pair: a , b . Output: entry with lower half-life. State the label of the item chosen.
a
(a: 2.1 h, b: 20 h)

----------
# ASSAY EXPLANATION: Elimination half life in human at 5 mg
# Assay type: ADME, organism-based
# CONDITION INFO: in vivo, read-out: beta t1/2 (converted)
MEASURED PROPERTY: half-life (h)
Give just the numeric value; h need not be written.

Name the recorded half-life for CC(C)N1CCN(C(=O)c2ccc(CN3CCOCC3)cc2)CC1.O=C(O)/C=C\C(=O)O .
56.1

----------
# ASSAY EXPLANATION: Clearance in Sprague-Dawley rat
# Assay type: ADME, organism-based
# CONDITION INFO: in vivo
MEASURED PROPERTY: clearance (mL/min/kg)

>>> recorded_result("CC(C)N1CCN(C(=O)c2ccc(CN3CCCCC3)cc2)CC1")
26.1

a: O=C(c1ccc(CN2CCOCC2)cc1)N1CCN(C2CCC2)CC1
b: O=C(c1ccc(CN2CCC(F)CC2)cc1)N1CCN(C2CCC2)CC1
c: CC(C)N1CCN(C(=O)c2ccc(CN3CCOCC3)cc2)CC1.O=C(O)/C=C\C(=O)O
d: Cl.O=C(c1ccc(CN2CCOCC2)cc1)N1CCN(C2CC2)CC1
Highest clearance first, then in falling order down to the smallest. Returns: the labels arranged in the requested order.
b, a, d, c
(b: 113 mL/min/kg, a: 34.9 mL/min/kg, d: 21.6 mL/min/kg, c: 12.8 mL/min/kg)

----------
# ASSAY EXPLANATION: Drug uptake in Sprague-Dawley rat brain at 3 mg/kg, po measured at 1 hr
# Assay type: ADME, organism-based
# CONDITION INFO: read-out: Drug uptake
MEASURED PROPERTY: concentration at 1 h (nM)

Sample answers from the record:
>>> recorded_result("CC(C)N1CCN(C(=O)c2ccc(CN3CCC(F)CC3)cc2)CC1")
1820
>>> recorded_result("CC(C)N1CCN(C(=O)c2ccc(CN3CCCCC3)cc2)CC1")
480

I: Cl.O=C(c1ccc(CN2CCOCC2)cc1)N1CCN(C2CC2)CC1
II: O=C(c1ccc(CN2CCC(F)CC2)cc1)N1CCN(C2CC2)CC1
III: O=C(c1ccc(CN2CCOCC2)cc1)N1CCN(C2CCC2)CC1
IV: CC(C)N1CCN(C(=O)c2ccc(CN3CCOCC3)cc2)CC1.O=C(O)/C=C\C(=O)O
Number of molecules to sort: 4. Sort criterion: concentration at 1 h, ascending. Returns: the labels arranged in the requested order.
II, I, IV, III

----------
# ASSAY EXPLANATION: Apparent permeability across basolateral to apical side in human Caco2 cells at 10 uM […] by LC/MS/MS analysis
# Format: ADME, cell-based
# CONDITION INFO: Caco-2
MEASURED PROPERTY: Papp B→A at 10 µM (×10⁻⁶ cm/s)

>>> recorded_result("CC(C)N1CCN(C(=O)c2ccc(CN3CCCCC3)cc2)CC1")
14.8

P: Cl.O=C(c1ccc(CN2CCOCC2)cc1)N1CCN(C2CC2)CC1
Q: CC(C)N1CCN(C(=O)c2ccc(CN3CCOCC3)cc2)CC1.O=C(O)/C=C\C(=O)O
Quick check, higher Papp B→A at 10 µM between P and Q ? State the label of the item chosen.
P

----------
# ASSAY EXPLANATION: Metabolic stability in Sprague-Dawley rat liver microsomes assessed as compound remaining at 1 uM after 15 mins
# Type: ADME
# CONDITION INFO: read-out: Stability
MEASURED PROPERTY: remaining at 0.25 h, 1 µM (%)

>>> recorded_result("O=C(c1ccc(CN2CCOCC2)cc1)N1CCN(C2CCC2)CC1")
49.6
>>> recorded_result("CC(C)N1CCN(C(=O)c2ccc(CN3CCC(F)CC3)cc2)CC1")
50

P: O=C(c1ccc(CN2CCC(F)CC2)cc1)N1CCN(C2CC2)CC1
Q: Cl.O=C(c1ccc(CN2CCOCC2)cc1)N1CCN(C2CC2)CC1
Input pair: P , Q . Output: entry with lower remaining at 0.25 h, 1 µM. State the label of the item chosen.
P
